- TEST_DETAILS: inhibitors of TNFa-induced NFkB p65 translocation, primary screen, imaging, HUVEC, MLSMR starter and 10KST1 sets (AID 438);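 note: compound added about 3h40 before a 20 min TNFalpha stimulation; signal is the nuclear over cytoplasmic p65 intensity ratio per well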
- STATED_CONDITIONS: HUVEC TNFa-induced p65 nuclear translocation; at 2 µM, hits give high values, 0% TNFa-plus-vehicle, 100% no-TNFa wells
Active and inactive are the calls of the source.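 Rule for the calls: active = inhibition above 20% together with a positive visual image hit; inconclusive = visual image hit but inhibition not above 20%; inactive = no visual image hit.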

COMPOUND	inhibition
CCN(CC)CCN1C(=O)C(=O)/C(=C(/O)c2c(C)[nH]c(C(=O)OC)c2C)C1c1ccccc1OC (stereo not given)	1% (inactive)
CCOc1cccc(/C(O)=C2/C(=O)C(=O)N(CCN3CCOCC3)C2c2cccnc2)c1 (stereo not given)	-1.1% (inactive)
O=C(NCc1ccco1)C(c1ccco1)N(C(=O)Cn1nnc2ccccc21)c1ccc2c(c1)CCC2 (stereo not given)	-8% (inactive)
Cc1noc(C(=O)Nc2ccc3c(c2)OCO3)c1Cl	0% (inactive)
CC(C)=CCCC(C)CN(C)CCc1ccccn1 (stereo not given)	-2.1% (inactive)
CC12CN3CC(=O)N4CC5(C)CN(CC(C)(C4)C5=O)C(=O)CN(C1)CC(C)(C3)C2=O	-11.2% (inactive)
O=C(Nc1ccccc1)C1=C(O)CC(c2ccoc2)CC1=Nc1ccccc1 (stereo not given)	-2.1% (inactive)
CC(C)(C)c1nnc(NC(=O)C2CCN(c3ncccn3)CC2)s1	-9.2% (inactive)
COc1ccc(C2CC(c3ccc(Cl)cc3Cl)Nc3nc(N)nn32)cc1 (stereo not given)	2.3% (inactive)
CCC1C(=O)N=C(SCC(=O)Nc2cccc3ccccc23)NC1=O (stereo not given)	-4% (inactive)
